// reported IC50 for each item listed
assay-system: E9/A20/D4 proteins (molluscum mD4) (Molluscum contagiosum virus)
Sequence (Q98260 1-226): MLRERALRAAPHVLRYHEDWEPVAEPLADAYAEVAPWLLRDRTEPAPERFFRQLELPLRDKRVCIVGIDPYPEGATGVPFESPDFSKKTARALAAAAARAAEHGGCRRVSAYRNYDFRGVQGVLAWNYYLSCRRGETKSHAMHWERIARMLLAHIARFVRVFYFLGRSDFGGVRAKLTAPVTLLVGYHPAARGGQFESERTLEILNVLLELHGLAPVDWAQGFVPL
protocol-notes: biochemical

compound | units | readout-relation | IC50
CN(Cc1ccccc1)C(=O)c1ccsc1NC(=O)N1CCN(c2ccccn2)CC1 [Compound 173] | µM | > | 200
COc1ccccc1CN(C)C(=O)c1ccsc1NC(=O)N1CCN(c2ccccn2)CC1 [Compound 172] | µM | = | 117
O=C(NCc1ccc(Cl)nc1)c1ccsc1NC(=O)N1CCN(c2ccccn2)CC1 [Compound 170] | µM | > | 200
CCC(C(=O)Nc1snnc1-c1ccc(C(F)(F)F)cc1)c1ccccc1 (stereo not drawn) [Compound 109] | µM | = | 68.6
CCC(C(=O)Nc1sccc1C(=O)NCc1ccc(Cl)cc1)c1ccccc1 (stereo not drawn) [Compound 110] | µM | > | 100
O=C(NCCc1ccccn1)Nc1snnc1C(=O)NCc1ccc(F)cc1 [Compound 184] | µM | = | 60
CCC(C(=O)Nc1sc(C(N)=O)c(C)c1C(=O)OC)c1ccccc1 (stereo not drawn) [Compound 1] | µM | = | 16.3
O=C(NCCN1CCOCC1)Nc1snnc1C(=O)NCc1ccc(F)cc1 [Compound 182] | µM | > | 100
CCC(C(=O)Nc1sccc1C(=O)NCc1ccccc1)c1ccccc1 (stereo not drawn) [Compound 161] | µM | = | 140
